B1: library; a variant is named by its letters at N, in order (parent)
chain: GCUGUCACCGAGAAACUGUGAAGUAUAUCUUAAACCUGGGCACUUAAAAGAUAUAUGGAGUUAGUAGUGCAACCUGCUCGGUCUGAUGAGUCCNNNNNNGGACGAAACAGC

variants of: B1; test: normalized RNA/DNA level with ligand (relative to sTRSVctl = 100) (log10 (% of sTRSVctl)); HEK293T; ligand: cyclic di-GMP (c-di-GMP-II aptamer); ligand concentration (+) RNA-Seq: 1 mM; higher = less ribozyme self-cleavage, higher mRNA level; conditions: reporter: mCherry (pCS4076), ligand present: yes
Entries annotated with measured normalized RNA/DNA level with ligand (log10)
API doc: respond with a numeric literal and nothing else, no unit.

Here's what some known entries look like.
>>> observed_measurement("CAACCG")
1.88
>>> observed_measurement("UAACUG")
1.84
>>> observed_measurement("GUUAGG")
1.72
>>> observed_measurement("ACAGAU")
1.54
>>> observed_measurement("UCCACC")
1.8
>>> observed_measurement("AGCACA")
1.72

Quick one: normalized RNA/DNA level with ligand (log10) for CGUCUG ?
1.83

Quick one: normalized RNA/DNA level with ligand (log10) for UGACAU ?
1.81

Quick one: normalized RNA/DNA level with ligand (log10) for GGGGUC ?
1.79

Quick one: normalized RNA/DNA level with ligand (log10) for AAAUCU ?
1.82

Quick one: normalized RNA/DNA level with ligand (log10) for GGCCGC ?
1.84
